Target: human RXFP1 (Homo sapiens)
Sequence (Q9HBX9 whole entry): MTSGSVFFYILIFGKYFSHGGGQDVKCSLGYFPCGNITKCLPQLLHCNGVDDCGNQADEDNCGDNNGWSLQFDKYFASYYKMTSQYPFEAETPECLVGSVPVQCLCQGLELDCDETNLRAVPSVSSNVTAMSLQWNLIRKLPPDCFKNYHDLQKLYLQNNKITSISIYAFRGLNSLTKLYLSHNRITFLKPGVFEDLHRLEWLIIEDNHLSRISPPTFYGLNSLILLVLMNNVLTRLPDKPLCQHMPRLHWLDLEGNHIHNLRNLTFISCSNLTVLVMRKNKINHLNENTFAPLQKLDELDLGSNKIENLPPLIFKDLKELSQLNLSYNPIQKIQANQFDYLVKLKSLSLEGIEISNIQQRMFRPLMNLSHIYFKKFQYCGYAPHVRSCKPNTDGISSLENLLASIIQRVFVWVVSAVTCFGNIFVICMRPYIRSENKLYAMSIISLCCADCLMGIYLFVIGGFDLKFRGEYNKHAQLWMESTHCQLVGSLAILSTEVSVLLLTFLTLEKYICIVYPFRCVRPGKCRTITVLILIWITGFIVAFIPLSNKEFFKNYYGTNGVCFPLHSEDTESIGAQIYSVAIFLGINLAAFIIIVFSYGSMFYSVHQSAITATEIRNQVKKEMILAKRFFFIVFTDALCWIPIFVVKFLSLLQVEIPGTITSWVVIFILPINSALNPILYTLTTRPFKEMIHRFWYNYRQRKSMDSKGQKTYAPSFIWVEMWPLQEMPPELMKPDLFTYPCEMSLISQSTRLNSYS
Test: RXFP1 Hu cAMP (Test A)
Type: cell-based
Parameters: expressed in transfected cells; host or cells: Jump-In T-REx CHO-K1 cells (ThermoFisher), induced with 10 ng/ml doxycycline for 24 h
Conditions: RXFP1 Hu cAMP; read-out: Test A EC50
# pEC50 per entry
Please note pEC50 is a logarithmic value: minus log10 of concentration in mol/L. Answer with that number alone.

Examples with answers:
molecule=COc1cc(C#N)c(O[C@H]2CC[C@@](C)(C(=O)O)CC2)cc1C(=O)N[C@@H]1[C@H]2CC[C@H](C2)[C@@H]1C(=O)NC[C@@H](F)c1ccccc1 measured=7.08
molecule="COc1cc(F)c(O[C@H]2CC[C@@](C)(C(=O)O)CC2)cc1C(=O)NC1C2CCC(C2)C1C(=O)Nc1ccc(F)c(S(F)(F)(F)(F)F)c1 (single isomer, unassigned)" measured=9.31
molecule="COc1cc(F)c(O[C@H]2CC[C@@](C)(C(=O)O)CC2)cc1C(=O)N[C@@H]1CCCCC[C@@H]1C(=O)Nc1cccc(S(=O)(=O)C(F)(F)F)c1 (racemic)" measured=7.96

Okay, next one:
query: Name the recorded pEC50 for COc1cc(F)c(-c2ccc(O)c(C(=O)O)c2)cc1C(=O)N[C@H]1[C@@H]2CC[C@@H](C2)[C@H]1C(=O)Nc1cccc(S(=O)(=O)C(F)(F)F)c1 (single isomer, unassigned) .
result: 6.89

---

Target: UniProt:Q9HBX9
Test: RXFP1 Hu cAMP (Test A)
Format: cell-based
Design: expressed in transfected cells; host or cells: Jump-In T-REx CHO-K1 cells (ThermoFisher), induced with 10 ng/ml doxycycline for 24 h
Conditions: RXFP1 Hu cAMP
We begin with a simple list: items and their reported Test A Sinf.
Your answer is read as %, so omit the unit and give the number.

compound=COC[C@]1(C(=O)O)CC[C@@H](Oc2cc(C(=O)N[C@@H]3[C@@H]4CC[C@@H](C4)[C@@H]3C(=O)Nc3cccc(S(=O)(=O)C(F)(F)F)c3)c(OC)cc2F)CC1 parameter="Test A Sinf" measured=104

query: Endpoint output: Test A Sinf of "COc1cc(C#N)c(O[C@H]2CC[C@@](C)(C(=O)O)CC2)cc1C(=O)N[C@@H]1[C@H]2CC[C@H](C2)[C@@H]1C(=O)NCC1(O)CCC(F)(F)CC1" . Value?
result: 100

query: Moving on to "COc1cc(C#N)c(O[C@H]2CC[C@@](C)(C(=O)O)CC2)cc1C(=O)N[C@@H]1CCC[C@@H]1C(=O)NCC1(C)CCC1"
result: 101

query: # repeat for "COc1cc(C#N)c(O[C@H]2CC[C@@](C)(C(=O)O)CC2)cc1C(=O)Nc1cc(Cl)ccc1C(=O)NCC1(c2ccccc2)CC1"
result: 118

query: Similarly, "CCCCNC(=O)[C@H]1[C@@H]2CC[C@@H](C2)[C@H]1NC(=O)c1cc(O[C@H]2CC[C@@](C)(C(=O)O)CC2)c(C#N)cc1OC" ?
result: 114

query: Same read-out for CCC(C)CNC(=O)C1C2CCC(C2)C1NC(=O)c1cc(OC2CCC(C(=O)O)CC2)c(F)cc1OC (single isomer, unassigned) [Example 203] ?
result: 118

---

Assay: Rat Hepatocyte Stability (Test E)
Assay type: in vitro ADME
Settings: rat, hepatocytes, geometric mean if run multiple times
List of hepatocyte CLint values.

structureassmiles=COc1cc(F)c(O[C@H]2CC[C@@](C)(C(=O)O)CC2)cc1C(=O)Nc1c(C)cc(C)cc1C(=O)NCC1(C)CCC1 measured="12 µL/min/1e6 cells"
structureassmiles=COc1cc(F)c(O[C@H]2CC[C@@H](C(=O)O)CC2)cc1C(=O)N[C@@H]1[C@H]2CC[C@H](C2)[C@@H]1C(=O)Nc1cccc(CF)c1 measured="> 300 µL/min/1e6 cells"
structureassmiles=COc1cc(F)c(-c2ccc(C(=O)O)c(C)c2)cc1C(=O)N[C@@H]1[C@H]2CC[C@H](C2)[C@@H]1C(=O)Nc1cccc(S(=O)(=O)C(F)(F)F)c1 measured="16 µL/min/1e6 cells"
structureassmiles=COc1cc(F)c(-c2ccc(OCC(=O)O)nc2)cc1C(=O)N[C@@H]1[C@H]2CC[C@H](C2)[C@@H]1C(=O)Nc1cccc(S(=O)(=O)C(F)(F)F)c1 measured="12 µL/min/1e6 cells"
structureassmiles=COc1cc(F)c(C[C@H]2CC[C@@](C)(C(=O)O)CC2)cc1C(=O)N[C@@H]1[C@H]2CC[C@H](C2)[C@@H]1C(=O)NCC1(C)CCC1 measured="18 µL/min/1e6 cells"

Next:
query: Consider the compound shown here: "COc1cc(F)c(O[C@H]2CC[C@@H](C(=O)O)CC2)cc1C(=O)N[C@@H]1[C@H]2CC[C@H](C2)[C@@H]1C(=O)Nc1cccc(C(F)(F)F)c1C" What is its recorded hepatocyte CLint?
result: 45 µL/min/1e6 cells
